Value source: paper PMC8401736

Experimental system: recombinant human HsG6PD (Homo sapiens, UniProt P11413)
Sequence (P11413 whole entry): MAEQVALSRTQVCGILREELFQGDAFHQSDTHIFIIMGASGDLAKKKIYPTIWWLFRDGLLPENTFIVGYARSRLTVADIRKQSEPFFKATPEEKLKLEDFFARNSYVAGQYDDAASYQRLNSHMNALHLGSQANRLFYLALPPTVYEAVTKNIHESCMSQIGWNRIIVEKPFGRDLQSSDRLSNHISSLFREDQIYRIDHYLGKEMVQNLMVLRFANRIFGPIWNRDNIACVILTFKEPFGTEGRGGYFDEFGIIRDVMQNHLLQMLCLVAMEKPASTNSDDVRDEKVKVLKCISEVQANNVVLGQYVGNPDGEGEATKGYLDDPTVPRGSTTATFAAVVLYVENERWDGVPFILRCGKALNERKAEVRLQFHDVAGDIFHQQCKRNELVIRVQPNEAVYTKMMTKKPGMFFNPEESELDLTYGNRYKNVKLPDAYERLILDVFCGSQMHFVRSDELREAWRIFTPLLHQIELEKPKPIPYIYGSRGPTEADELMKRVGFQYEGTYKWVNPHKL
Measurement description: Inhibition of recombinant human HsG6PD at 400 μM
Format: biochemical
Condition description: 400 μM compound
Given measured inhibition at 400 µM, output 1 if it is greater than or equal to 8% and -1 if not.

> print(dat)
                                   compound                       experimental.system  class.name
1  COc1cc(/C=C2\SC(=O)NC2=O)ccc1OCCN1CCCCC1 [TDA-1]  recombinant human HsG6PD (Homo sapiens, UniProt P11413)           1
2  O=C(O)CCc1ccc(NC(=O)CSc2nc3ccccc3o2)cc1 [MGD-2]  recombinant human HsG6PD (Homo sapiens, UniProt P11413)          -1
3  COc1ccc(/C=C2\SC(=O)NC2=O)cc1Oc1nc2ccccc2[nH]1 [YGC-4]  recombinant human HsG6PD (Homo sapiens, UniProt P11413)           1
4  O=C(O)CCc1ccc(NC(=O)CSc2nc3ccccc3[nH]2)cc1 [MGD-1]  recombinant human HsG6PD (Homo sapiens, UniProt P11413)          -1
5  COc1ccc(/C=C2\SC(=O)NC2=O)cc1OCc1cccc(-c2ccccc2)c1 [YGC-3]  recombinant human HsG6PD (Homo sapiens, UniProt P11413)          -1
6  COc1cc(CCC(=O)O)ccc1OCc1ccc(-c2ccccc2C#N)cc1 [JMM-3]  recombinant human HsG6PD (Homo sapiens, UniProt P11413)          -1

====

Tested on: recombinant HpG6PD (H. pylori glucose-6-phosphate dehydrogenase)
Measurement description: High-throughput screening of HpG6PD residual activity at 400 μM
Assay type: biochemical, Helicobacter pylori
Condition description: 400 μM compound, 5% DMSO, 0.2 mg/mL HpG6PD, 37 °C for two hours
Quick rule for you: HpG6PD Inhibition (%) at (400 μM) at 60% or higher means true, lower means false.

> print(dat)
                  compound.structure.string                       experimental.system  class.name
1  COc1ccc(/C=C2\SC(=O)NC2=O)cc1Oc1nc2ccccc2[nH]1  recombinant HpG6PD (H. pylori glucose-6-phosphate dehydrogenase)       false
2  O=C(O)CCc1ccc(NC(=O)CSc2nc3ccccc3[nH]2)cc1  recombinant HpG6PD (H. pylori glucose-6-phosphate dehydrogenase)       false
3  COc1ccc(/C=C2\SC(=O)NC2=O)cc1OCc1cccc(-c2ccccc2)c1  recombinant HpG6PD (H. pylori glucose-6-phosphate dehydrogenase)       false
4   O=C(O)CCc1ccc(NC(=O)CSc2nc3ccccc3o2)cc1  recombinant HpG6PD (H. pylori glucose-6-phosphate dehydrogenase)       false
5  COc1ccc(/C=C2\SC(=O)NC2=O)cc1OCc1cccc2ccccc12  recombinant HpG6PD (H. pylori glucose-6-phosphate dehydrogenase)        true
6  COc1cc(CCC(=O)O)ccc1OCc1ccc(-c2ccccc2C#N)cc1  recombinant HpG6PD (H. pylori glucose-6-phosphate dehydrogenase)        true

====

Experimental system: HpG6PD enzyme (Helicobacter pylori)
Sequence (P56110 whole entry): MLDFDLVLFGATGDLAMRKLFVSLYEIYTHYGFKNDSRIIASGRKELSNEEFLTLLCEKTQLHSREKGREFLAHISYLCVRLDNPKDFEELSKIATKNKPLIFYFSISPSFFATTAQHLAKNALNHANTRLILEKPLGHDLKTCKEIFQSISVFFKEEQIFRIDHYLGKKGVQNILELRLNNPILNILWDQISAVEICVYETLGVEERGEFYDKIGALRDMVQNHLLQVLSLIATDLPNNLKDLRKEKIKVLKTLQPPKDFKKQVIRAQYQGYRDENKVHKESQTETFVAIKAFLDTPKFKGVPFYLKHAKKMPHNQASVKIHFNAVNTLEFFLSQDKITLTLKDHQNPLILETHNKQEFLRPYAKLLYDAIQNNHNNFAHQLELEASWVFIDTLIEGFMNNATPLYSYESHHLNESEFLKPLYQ
Measurement description: Inactivation assays of the HpG6PD enzyme with increasing concentrations of compounds
Type: biochemical
Condition description: 2 h, read-out: loss of HpG6PD activity
Property: inhibition at 800 µM (%)

> print(dat)
                  compound.structure.string              property  reported.measurement
1  COc1ccc(/C=C2\SC(=O)NC2=O)cc1Oc1nc2ccccc2[nH]1  inhibition at 800 µM                    80
2  COc1ccc(/C=C2\SC(=O)NC2=O)cc1OCc1cccc(-c2ccccc2)c1  inhibition at 800 µM                    80
3  COc1ccc(/C=C2\SC(=O)NC2=O)cc1OCc1cccc2ccccc12  inhibition at 800 µM                    91
4  COc1cc(CCC(=O)O)ccc1OCc1ccc(-c2ccccc2C#N)cc1  inhibition at 800 µM                    80
